TEST SUMMARY: ATG_PPRE_CIS: Attagene CIS-FACTORIAL HepG2 Assay for human Peroxisome Proliferator-activated Response Element (PPRE) (AID 2282958)
ASSAY SETUP: HepG2 PPRE cis-element reporter, Attagene transcription factor profiling; actives raise or lower the signal
Calls of active or inactive are those of the source. The calls were made as follows: active = hit-call score of the fitted dose curve at least 0.9, where 1 is the maximum; inactive = score below 0.9.
Hello, when you answer, please use one of the following outcomes: label 1 = active, label 0 = inactive

Solved entries (count: 5):
[
  {
    "CHEMICAL STRUCTURE": "O=CCCCC=O",
    "LABEL CLASS": "label 0"
  },
  {
    "CHEMICAL STRUCTURE": "O=C(O)c1ccccc1-n1cc(C(=O)O)c(=O)c2cc(Nc3c(F)cc(F)cc3Cl)c(Cl)cc21",
    "LABEL CLASS": "label 0"
  },
  {
    "CHEMICAL STRUCTURE": "Cc1ccc(C(C)C)cc1",
    "LABEL CLASS": "label 0"
  },
  {
    "CHEMICAL STRUCTURE": "CCCCCCCCCCCC[N+](C)(C)C",
    "LABEL CLASS": "label 0"
  },
  {
    "CHEMICAL STRUCTURE": "CC[C@H](NC(=O)c1cc(F)ccc1NS(=O)(=O)c1cccc2cccnc12)c1ccccc1",
    "LABEL CLASS": "label 0"
  }
]

Recorded call for CCN(Cc1cccc(S(=O)(=O)O)c1)c1ccc(C(=C2C=CC(=[N+](CC)Cc3cccc(S(=O)(=O)O)c3)C=C2)c2ccccc2S(=O)(=O)[O-])cc1 ?
label 0

Recorded call for O=C=NCCCCCCN=C=O ?
label 0

Recorded call for c1ccc2n[nH]nc2c1 ?
label 0

Recorded call for CCCCCCCCOC(=O)c1cc(O)c(O)c(O)c1 ?
label 0

Recorded call for Cc1cc2c(cc1C(F)(F)F)N(C(=O)Nc1ccc(Oc3cccnc3C)nc1)CC2 ?
label 0

Recorded call for CCN(Cc1cccnc1)C(=O)c1cccc(Cl)c1[C@]1(C)C(=O)N(Cc2ccc(OC)cc2OC)c2ccc(Cl)cc21 ?
label 0

Recorded call for CC(C)(C)c1csc(-c2cc3cc(OCc4ccccc4CC(=O)O)ccc3o2)n1 ?
label 1

* * *

TEST SUMMARY: CEETOX_H295R_OHPREG: CeeTox H295R High-throughput Steroidogenesis Assay for OH-Pregnenolone (OHPREG) (AID 2283434)
ASSAY SETUP: actives raise or lower the signal
The source made the active and inactive calls. The calls were made as follows: active = hit-call score of the fitted dose curve at least 0.9, where 1 is the maximum; inactive = score below 0.9.
Hello, when you answer, please use one of the following outcomes: active, inactive

Solved entries (count: 2):
[
  {
    "COMPOUND": "CCCCOC(=O)c1ccc(O)cc1",
    "LABEL CLASS": "inactive"
  },
  {
    "COMPOUND": "OC12N=C(c3ccccc3)SC1Cc1cc(Cl)ccc12 (stereo not given)",
    "LABEL CLASS": "inactive"
  }
]

Recorded call for C[C@]12CC[C@@H]3c4ccc(O)cc4CC[C@H]3[C@@H]1CC[C@H]2O ?
active

Recorded call for CO[C@H]1/C=C/O[C@@]2(C)Oc3c(C)c(O)c4c(O)c(c(/C=N/N5CCN(C)CC5)c(O)c4c3C2=O)NC(=O)/C(C)=C\C=C\[C@H](C)[C@H](O)[C@@H](C)[C@@H](O)[C@@H](C)[C@H](OC(C)=O)[C@@H]1C ?
inactive

Recorded call for O=C(Nc1ccc(Cl)cc1)Nc1ccc(Cl)c(Cl)c1 ?
active

Recorded call for Oc1ccc2ccccc2c1 ?
inactive

Recorded call for Cc1ccc2oc(CN(Cc3ccccc3)C(=O)Nc3c(F)cc(F)cc3F)c(-c3ccc(Cl)cc3)c2c1 ?
inactive

Recorded call for Cc1oc2c(NC(=O)c3c(Cl)cccc3Cl)cccc2c1C(C)(C)O ?
active

Recorded call for Clc1ccccc1C(c1ccccc1)(c1ccccc1)n1ccnc1 ?
active

Recorded call for CCCCCCCC[Si](OCC)(OCC)OCC ?
inactive

* * *

Read-out: solute carrier (SLCO1B1), SLCO1B1 (gene 10599)
TEST SUMMARY: LTEA_HepaRG_SLCO1B1: Life Technologies and Expression Analysis (LTEA) Assay for solute carrier (SLCO1B1) using HepaRG (AID 2283530)
ASSAY SETUP: mRNA level, 48 h; actives raise or lower the signal
Calls of active or inactive are those of the source. Rule for the calls: active = hit-call score of the fitted dose curve at least 0.9, where 1 is the maximum; inactive = score below 0.9.
Hello, when you answer, please use one of the following outcomes: true (1) for active, false (0) for inactive

[
  {
    "COMPOUND": "CC(C)(c1cc(Br)c(O)c(Br)c1)c1cc(Br)c(O)c(Br)c1",
    "LABEL CLASS": "false (0)"
  },
  {
    "COMPOUND": "COc1ccc2cc(S(=O)(=O)N[C@H](CC(=O)N[C@H](Cc3ccc(CN4[C@H](C)CCC[C@@H]4C)cc3)C(=O)N(C)C(C)C)c3ccc4c(c3)OCO4)ccc2c1",
    "LABEL CLASS": "true (1)"
  },
  {
    "COMPOUND": "CC[C@H](NC(=O)c1cc(F)ccc1NS(=O)(=O)c1cccc2cccnc12)c1ccccc1",
    "LABEL CLASS": "true (1)"
  }
]

Recorded call for NC(=O)c1nc(-c2cccc(-c3cc(F)ccc3OCC(F)(F)C(F)(F)F)c2)n[nH]1 ?
false (0)

Recorded call for NCc1cccc(C2CCN(C(=O)c3ccc(C#Cc4ccccc4F)o3)CC2)c1 ?
true (1)

Recorded call for CCCCCCCCCCCCO ?
false (0)

Recorded call for CCCCCCCC[Si](OCC)(OCC)OCC ?
false (0)

Recorded call for CCCCCCCCOC(=O)c1cc(O)c(O)c(O)c1 ?
false (0)

Recorded call for O=c1c(-c2ccc(O)cc2)coc2cc(O)cc(O)c12 ?
false (0)

Recorded call for CCO[Si](CCCNC(N)=O)(OCC)OCC ?
false (0)

* * *

TEST SUMMARY: BSK_SAg_SRB: Viability Assessment in the BioMAP Diversity Plus: SAg Assay (AID 2283096);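 also: cells read one day after compound addition; hits may be either gain or loss of signal compared with DMSO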
ASSAY SETUP: primary human HUVEC with PBMC
The source made the active and inactive calls. How the source made its calls: active means hit-call score of the fitted dose curve at least 0.9, where 1 is the maximum; inactive means score below 0.9.
Hello, when you answer, please use one of the following outcomes: 1 (yes) for active, 0 (no) for inactive

Solved entries (count: 4):
[
  {
    "CHEMICAL STRUCTURE": "Oc1ccccc1",
    "LABEL CLASS": "0 (no)"
  },
  {
    "CHEMICAL STRUCTURE": "CC(=O)N1CCN(c2ccc(OC[C@H]3CO[C@](Cn4ccnc4)(c4ccc(Cl)cc4Cl)O3)cc2)CC1",
    "LABEL CLASS": "1 (yes)"
  },
  {
    "CHEMICAL STRUCTURE": "CCCCCCCCOc1ccc(C(=O)c2ccccc2)c(O)c1",
    "LABEL CLASS": "1 (yes)"
  },
  {
    "CHEMICAL STRUCTURE": "O=C(O)Cn1c(=O)n(Cc2ccc(Br)cc2F)c(=O)c2ccc(Cl)cc21",
    "LABEL CLASS": "0 (no)"
  }
]

Recorded call for CO[C@H]1/C=C/O[C@@]2(C)Oc3c(C)c(O)c4c(O)c(c(/C=N/N5CCN(C)CC5)c(O)c4c3C2=O)NC(=O)/C(C)=C\C=C\[C@H](C)[C@H](O)[C@@H](C)[C@@H](O)[C@@H](C)[C@H](OC(C)=O)[C@@H]1C ?
0 (no)

Recorded call for CC1(C)NC(=O)N(c2ccc([N+](=O)[O-])c(C(F)(F)F)c2)C1=O ?
0 (no)

* * *

Read-out: Tissue Factor, F3 (gene 2152)
TEST SUMMARY: BSK_CASM3C_TissueFactor: BioMAP Diversity Plus: CASM3C Assay for Tissue Factor Biomarker Activity (AID 2283052);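 also: cell surface tissue factor protein level read by ELISA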
ASSAY SETUP: primary human coronary artery smooth muscle cells; actives raise or lower the signal
Active and inactive are the calls of the source. How the source made its calls: active means hit-call score of the fitted dose curve at least 0.9, where 1 is the maximum; inactive means score below 0.9.
Hello, when you answer, please use one of the following outcomes: active, inactive

Solved entries (count: 5):
[
  {
    "COMPOUND": "OC12N=C(c3ccccc3)SC1Cc1cc(Cl)ccc12 (configuration not stated)",
    "LABEL CLASS": "inactive"
  },
  {
    "COMPOUND": "O=c1c(-c2ccc(O)cc2)coc2cc(O)cc(O)c12",
    "LABEL CLASS": "inactive"
  },
  {
    "COMPOUND": "CC(C)(C)c1cc(/C=C2\\SC(N)=NC2=O)cc(C(C)(C)C)c1O",
    "LABEL CLASS": "inactive"
  },
  {
    "COMPOUND": "CCCCCc1ccc(N)cc1",
    "LABEL CLASS": "inactive"
  },
  {
    "COMPOUND": "CCCCOC(=O)CC(CC(=O)OCCCC)(OC(C)=O)C(=O)OCCCC",
    "LABEL CLASS": "inactive"
  }
]

Recorded call for CCCCCCCCCCCC[N+](C)(C)C ?
active

Recorded call for CCCCCCCCN(C)CCCCCCCC ?
inactive
